Source: PubChem BioAssay (Tox21)

# subject_of_test: D(2) dopamine receptor (Homo sapiens) (UniProt P14416)
# Sequence (P14416 whole entry, looked up): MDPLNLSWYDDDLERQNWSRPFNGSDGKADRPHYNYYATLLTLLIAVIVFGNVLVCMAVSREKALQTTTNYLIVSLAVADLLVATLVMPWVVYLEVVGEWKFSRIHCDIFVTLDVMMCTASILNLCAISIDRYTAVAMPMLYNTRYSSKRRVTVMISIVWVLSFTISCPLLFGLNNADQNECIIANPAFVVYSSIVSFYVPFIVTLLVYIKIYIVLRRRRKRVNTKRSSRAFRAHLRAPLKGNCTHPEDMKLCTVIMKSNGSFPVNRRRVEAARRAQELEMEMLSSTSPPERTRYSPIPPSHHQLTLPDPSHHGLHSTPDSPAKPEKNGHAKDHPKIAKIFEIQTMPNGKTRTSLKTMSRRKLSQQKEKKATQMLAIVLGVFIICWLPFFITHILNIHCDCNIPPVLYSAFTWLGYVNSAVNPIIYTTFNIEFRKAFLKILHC
# measurement_description: Dopamine D2 receptor (DRD2) small molecule antagonists, cell-based qHTS assay (AID 1963595); note: % is set by controls: 0 for no effect and ±100 for the full control effect
# condition_details: HEK293-DRD2 cAMP HTRF antagonist mode; series mostly up to 92.4 µM
Inconclusive results are not listed. Calls of active or inactive are those of the source. Calls come from the whole dose curve; as a rule, active = well fitted inhibition curve with a large enough effect in the signal ratio in the repeat runs, with a control signal flat; inconclusive = weak or mixed curves, or effect the other way; inactive = flat fitted curve, though single readings scatter; the % refers to the signal ratio.
Give one outcome, nothing more. List: true (1) (active), false (0) (inactive)

Consider the following illustrative entries.
COc1ccc2c(c1)c1c3n2CCN(C)C3=NCC1 :: false (0)
OCc1c[nH]c2ccccc12 :: false (0)
CC(C)c1nnc2ccc(-c3ocnc3-c3cc(F)ccc3F)cn12 :: false (0)
C=CC[N+]1([C@H]2C[C@H]3[C@@H]4CC[C@H]5C[C@H](OC(C)=O)[C@@H](N6CCCCC6)C[C@]5(C)[C@H]4CC[C@]3(C)[C@H]2OC(=O)CC)CCCCC1 :: false (0)
C[C@H](CCC(=O)O)[C@H]1CC[C@H]2[C@@H]3CC[C@@H]4C[C@H](O)CC[C@]4(C)[C@H]3C[C@H](O)[C@]12C :: false (0)
C[C@H]1[C@H]2CC[C@H]3[C@@H]4CC=C5C[C@@H](N(C)C)CC[C@]5(C)[C@H]4CC[C@]23CN1C :: false (0)
CCN(Cc1cccc(S(=O)(=O)O)c1)c1ccc(C(=C2C=CC(=[N+](CC)Cc3cccc(S(=O)(=O)[O-])c3)C=C2)c2ccccc2)cc1 :: false (0)
CCCCN(CCC(=O)OCC)C(C)=O :: false (0)

stdin: Which outcome was entered for the compound CN(C)C(=O)COC(=O)Cc1ccc(OC(=O)c2ccc(N=C(N)N)cc2)cc1 in this test?
stdout: false (0)

stdin: // outcome(item) with item = FC(F)(Cl)C(F)(Cl)Cl
stdout: false (0)

stdin: Per the records of this test, what outcome belongs to CCCCCC=CCC=CCCCCCCCC(=O)OCC ?
stdout: false (0)
